The reported numbers originate from ChEMBL document CHEMBL1949512.

- methodDescription: Cmax in Wistar rat at 50 mg/kg, po
- Assay type: ADME, organism-based
- Set-up: dose 50 mg/kg, route oral
- conditionsUsed: in vivo
measuredParameter: Cmax
Answer by giving the amount and then stating its unit.

Lookup: Report measured Cmax; entry is COc1ccc(N2Cc3cnc(Nc4ccccc4)nc3N([C@@H]3CC[C@@H](O)C3)C2=O)cc1 (racemic)
Found: 7180 ng/mL

* * *

- methodDescription: Half life in athymic nude mouse at 10 mg/kg, iv
- Assay type: ADME, organism-based
- Parameters: dose 10 mg/kg, route intravenous
- conditionsUsed: in vivo
measuredParameter: half-life (h)
Return type: number; implicit unit h.

Lookup: Using known records, supply half-life for COc1ccc(N2Cc3cnc(Nc4ccccc4)nc3N([C@@H]3CC[C@@H](O)C3)C2=O)cc1 (racemic)
Found: 3

* * *

- methodDescription: AUC in athymic nude mouse at 10 mg/kg, iv
- Format: ADME, organism-based
- Parameters: dose 10 mg/kg, route intravenous
- conditionsUsed: plasma
measuredParameter: AUC (ng·h/mL)
Please respond with the number in ng·h/mL and leave the unit unwritten.

Lookup: Give AUC for the following molecule: COc1ccc(N2Cc3cnc(Nc4ccccc4)nc3N([C@@H]3CC[C@@H](O)C3)C2=O)cc1 (racemic)
Found: 11100

* * *

- methodDescription: Oral bioavailability in athymic nude mouse at 50 mg/kg
- Format: ADME, organism-based
- conditionsUsed: in vivo
measuredParameter: bioavailability (%)
All answers are understood in %, so give the number only.

Lookup: Identify measured bioavailability associated with COc1ccc(N2Cc3cnc(Nc4ccccc4)nc3N([C@@H]3CC[C@@H](O)C3)C2=O)cc1 (racemic)
Found: 93

* * *

- methodDescription: Volume of distribution at steady state in athymic nude mouse at 10 mg/kg, iv
- Format: ADME, organism-based
- Set-up: dose 10 mg/kg, route intravenous
- conditionsUsed: in vivo, read-out: Vdss
measuredParameter: Vd
Note: a bare number is incomplete; add the unit.

Lookup: Find the measured Vd of COc1ccc(N2Cc3cnc(Nc4ccccc4)nc3N([C@@H]3CC[C@@H](O)C3)C2=O)cc1 (racemic) and report it.
Found: 1.9 L/kg

* * *

- methodDescription: Cmax in C57/BL6 mouse at 50 mg/kg, po bid for 5 days
- Type: ADME, organism-based
- Parameters: dose 50 mg/kg, route oral
- conditionsUsed: in vivo
measuredParameter: Cmax
State the value with its unit after it.

Lookup: Give a short answer stating reported Cmax for COc1ccc(N2Cc3cnc(Nc4ccccc4)nc3N([C@@H]3CC[C@@H](O)C3)C2=O)cc1 (racemic) .
Found: 28400 ng/mL

* * *

- methodDescription: AUC in […] mouse at 100 mg/kg, po
- Assay type: ADME, organism-based
- Design: dose 100 mg/kg, route oral
- conditionsUsed: plasma
measuredParameter: AUC (µg·h/mL)
Write the number in µg·h/mL without appending the unit.

Lookup: Please report AUC for the following compound: COc1ccc(N2Cc3cnc(Nc4ccccc4)nc3N([C@@H]3CC[C@@H](O)C3)C2=O)cc1 (racemic)
Found: 146

* * *

- methodDescription: Tmax in […] mouse at 100 mg/kg, po
- Format: ADME, organism-based
- Parameters: dose 100 mg/kg, route oral
- conditionsUsed: in vivo
measuredParameter: Tmax (min)
State just the number; it will be interpreted in min.

Lookup: Item COc1ccc(N2Cc3cnc(Nc4ccccc4)nc3N([C@@H]3CC[C@@H](O)C3)C2=O)cc1 (racemic) : provide Tmax
Found: 30

* * *

- methodDescription: Clearance in Wistar rat at 5 mg/kg, iv
- Type: ADME, organism-based
- Parameters: dose 5 mg/kg, route intravenous
- conditionsUsed: in vivo
measuredParameter: clearance

Lookup: Look up clearance of COc1ccc(N2Cc3cnc(Nc4ccccc4)nc3N([C@@H]3CC[C@@H](O)C3)C2=O)cc1 (racemic) and report it.
Found: 23.1 mL/min/kg

* * *

- methodDescription: Half life in Wistar rat at 5 mg/kg, iv
- Assay type: ADME, organism-based
- Set-up: dose 5 mg/kg, route intravenous
- conditionsUsed: in vivo
measuredParameter: half-life (h)
Please give a number only; it is taken to be in h.

Lookup: Input COc1ccc(N2Cc3cnc(Nc4ccccc4)nc3N([C@@H]3CC[C@@H](O)C3)C2=O)cc1 (racemic) , output reported half-life.
Found: 6

* * *

- methodDescription: Cmax in athymic nude mouse at 50 mg/kg, po
- Type: ADME, organism-based
- Design: dose 50 mg/kg, route oral
- conditionsUsed: in vivo
measuredParameter: Cmax
Don't forget the unit after the value.

Lookup: Hello, please tell me recorded Cmax for this one: COc1ccc(N2Cc3cnc(Nc4ccccc4)nc3N([C@@H]3CC[C@@H](O)C3)C2=O)cc1 (racemic)
Found: 16500 ng/mL

* * *

Listed next: entries and their corresponding pIC50.
- system: Platelet-derived growth factor receptor (Homo sapiens, UniProt P09619+P16234)
- methodDescription: Inhibition of human recombinant His-tagged intracellular domain of PDGFR using biotin-EEEEYFELV as substrate by HTRF assay
On this scale, pIC50 is minus log10 of a concentration expressed in M (mol/L).

Here's what some known entries look like.
COc1ccc(N2Cc3cnc(Nc4ccccc4)nc3N([C@@H]3CC[C@@H](O)C3)C2=O)cc1 | 7.55
COc1ccc(N2Cc3cnc(Nc4ccccc4)nc3N([C@@H]3CC[C@@H](O)C3)C2=O)cc1 (racemic) | 7.48

Could you now look at the following compound, please?
Lookup: Identify measured pIC50 corresponding to `COc1ccc(N2Cc3cnc(Nc4ccccc4)nc3N([C@H]3CC[C@H](O)C3)C2=O)cc1`
Found: 7.48

* * *

# Lookup of reported pIC50 keyed by entry
- system: Vascular endothelial growth factor receptor 2 (Homo sapiens, UniProt P35968)
- Sequence (P35968 whole entry, the tested form may be a part): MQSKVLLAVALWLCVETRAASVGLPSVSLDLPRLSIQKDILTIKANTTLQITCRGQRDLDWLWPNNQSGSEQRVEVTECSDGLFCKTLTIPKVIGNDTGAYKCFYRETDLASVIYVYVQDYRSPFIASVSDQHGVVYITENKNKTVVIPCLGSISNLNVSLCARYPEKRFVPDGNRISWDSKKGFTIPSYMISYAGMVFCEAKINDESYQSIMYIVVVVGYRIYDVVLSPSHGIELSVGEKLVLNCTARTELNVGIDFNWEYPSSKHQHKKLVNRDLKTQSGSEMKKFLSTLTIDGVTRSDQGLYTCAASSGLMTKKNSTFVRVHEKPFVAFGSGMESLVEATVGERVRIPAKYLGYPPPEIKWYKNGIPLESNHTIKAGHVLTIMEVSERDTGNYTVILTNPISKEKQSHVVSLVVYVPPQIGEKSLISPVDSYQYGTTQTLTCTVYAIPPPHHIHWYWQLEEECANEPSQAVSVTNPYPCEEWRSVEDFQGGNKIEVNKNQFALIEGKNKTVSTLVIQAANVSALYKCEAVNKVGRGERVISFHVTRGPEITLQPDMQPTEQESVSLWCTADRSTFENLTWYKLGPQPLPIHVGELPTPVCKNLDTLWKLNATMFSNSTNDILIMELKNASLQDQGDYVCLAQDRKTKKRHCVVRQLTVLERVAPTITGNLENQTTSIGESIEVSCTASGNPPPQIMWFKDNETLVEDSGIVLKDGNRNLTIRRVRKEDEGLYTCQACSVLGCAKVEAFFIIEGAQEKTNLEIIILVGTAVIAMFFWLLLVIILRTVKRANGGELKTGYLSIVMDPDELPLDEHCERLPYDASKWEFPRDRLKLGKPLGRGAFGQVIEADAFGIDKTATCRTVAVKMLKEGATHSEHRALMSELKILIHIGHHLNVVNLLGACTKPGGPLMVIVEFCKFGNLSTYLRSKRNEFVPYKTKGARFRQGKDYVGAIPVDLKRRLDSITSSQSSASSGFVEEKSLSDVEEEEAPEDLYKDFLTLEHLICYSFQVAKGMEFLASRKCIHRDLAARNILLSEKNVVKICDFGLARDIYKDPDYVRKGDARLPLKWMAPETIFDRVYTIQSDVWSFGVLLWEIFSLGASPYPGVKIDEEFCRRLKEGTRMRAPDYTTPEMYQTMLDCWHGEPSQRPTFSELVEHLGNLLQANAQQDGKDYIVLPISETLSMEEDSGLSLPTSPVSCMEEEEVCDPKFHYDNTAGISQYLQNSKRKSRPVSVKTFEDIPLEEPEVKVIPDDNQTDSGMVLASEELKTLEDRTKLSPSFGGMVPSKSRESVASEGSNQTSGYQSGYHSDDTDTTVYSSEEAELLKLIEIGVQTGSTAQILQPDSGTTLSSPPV
- methodDescription: Inhibition of human recombinant EE-tagged intracellular domain of KDR using biotin-EEEEYFELVAKKKK as substrate by HTRF assay
// pIC50 is dimensionless: -log10 of concentration (M)

Reference set (2 entries):
COc1ccc(N2Cc3cnc(Nc4ccccc4)nc3N([C@@H]3CC[C@@H](O)C3)C2=O)cc1 (racemic) | 7.36
COc1ccc(N2Cc3cnc(Nc4ccccc4)nc3N([C@H]3CC[C@H](O)C3)C2=O)cc1 | 7.82

Lookup: Give the value of pIC50 reported for the following: `COc1ccc(N2Cc3cnc(Nc4ccccc4)nc3N([C@@H]3CC[C@@H](O)C3)C2=O)cc1`
Found: 7.92

* * *

- system: Protein kinase C delta type (Homo sapiens)
- Sequence (Q05655 whole entry): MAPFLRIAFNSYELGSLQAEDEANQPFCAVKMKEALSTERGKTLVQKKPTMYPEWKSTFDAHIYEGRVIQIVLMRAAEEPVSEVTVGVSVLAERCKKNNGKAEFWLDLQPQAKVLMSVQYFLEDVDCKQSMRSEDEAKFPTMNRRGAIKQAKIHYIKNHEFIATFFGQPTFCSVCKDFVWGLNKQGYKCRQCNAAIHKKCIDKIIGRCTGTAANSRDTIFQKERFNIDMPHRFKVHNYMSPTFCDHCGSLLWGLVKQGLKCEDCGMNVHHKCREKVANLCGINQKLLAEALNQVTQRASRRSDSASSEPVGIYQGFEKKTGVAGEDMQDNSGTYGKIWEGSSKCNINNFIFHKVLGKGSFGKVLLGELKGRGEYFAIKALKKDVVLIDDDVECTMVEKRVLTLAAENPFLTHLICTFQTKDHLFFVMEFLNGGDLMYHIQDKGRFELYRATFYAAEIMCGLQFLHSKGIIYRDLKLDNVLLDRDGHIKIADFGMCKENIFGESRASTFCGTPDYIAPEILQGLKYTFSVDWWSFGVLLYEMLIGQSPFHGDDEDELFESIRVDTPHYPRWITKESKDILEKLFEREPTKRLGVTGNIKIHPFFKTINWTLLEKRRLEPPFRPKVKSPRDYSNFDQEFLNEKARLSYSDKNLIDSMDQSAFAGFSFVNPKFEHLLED
- methodDescription: Inhibition of PKCdelta by IMAP assay
pIC50: −log10 of the molar value.
measuredParameter: pIC50

Lookup: Indicate the recorded pIC50 value for this molecule: COc1ccc(N2Cc3cnc(Nc4ccccc4)nc3N([C@@H]3CC[C@@H](O)C3)C2=O)cc1 (racemic)
Found: < 3.90
